meta.source: ChEMBL document CHEMBL3988442

tested_system: Protein translocase subunit SecA (Escherichia coli (strain K12)) (UniProt P10408)
Sequence (P10408 whole entry): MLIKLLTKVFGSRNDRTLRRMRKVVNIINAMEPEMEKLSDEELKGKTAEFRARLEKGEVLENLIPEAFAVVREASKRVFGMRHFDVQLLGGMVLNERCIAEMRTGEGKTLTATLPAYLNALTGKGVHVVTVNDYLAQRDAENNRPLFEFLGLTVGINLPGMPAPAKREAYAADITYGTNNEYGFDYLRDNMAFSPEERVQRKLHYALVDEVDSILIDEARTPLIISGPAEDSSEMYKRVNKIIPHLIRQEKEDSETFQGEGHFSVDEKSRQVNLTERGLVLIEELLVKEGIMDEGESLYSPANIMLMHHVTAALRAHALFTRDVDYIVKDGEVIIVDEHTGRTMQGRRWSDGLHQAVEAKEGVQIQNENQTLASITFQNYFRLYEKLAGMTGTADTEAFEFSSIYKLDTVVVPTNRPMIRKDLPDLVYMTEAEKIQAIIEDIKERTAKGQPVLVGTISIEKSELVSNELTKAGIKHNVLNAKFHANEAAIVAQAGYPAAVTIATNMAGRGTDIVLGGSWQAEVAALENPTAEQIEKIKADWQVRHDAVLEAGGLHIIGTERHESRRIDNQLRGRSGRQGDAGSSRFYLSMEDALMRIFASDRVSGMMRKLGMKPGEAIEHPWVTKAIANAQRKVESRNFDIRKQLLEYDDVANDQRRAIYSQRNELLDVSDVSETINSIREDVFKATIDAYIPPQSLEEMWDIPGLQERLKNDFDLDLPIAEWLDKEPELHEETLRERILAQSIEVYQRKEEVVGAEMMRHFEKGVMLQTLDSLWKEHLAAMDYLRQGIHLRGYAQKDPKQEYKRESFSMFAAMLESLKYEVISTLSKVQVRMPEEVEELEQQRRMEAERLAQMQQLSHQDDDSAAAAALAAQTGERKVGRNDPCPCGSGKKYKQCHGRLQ
test_method_notes: Assay to Identify E. coli SecA ATPase Inhibitors
Assay type: functional
Parameters: scale not given: direction of the effect not stated beside the values
recorded_conditions: 30 µM
Potency and affinity values are given separately.
measure: Percent Effect
Please don't drop the unit; write it after the number.

// returns reported Percent Effect for input CN(C)CC(=O)N1CCCC2(CCC(=O)N(CCc3c[nH]cn3)C2)C1 (stereo not given) -1.9%

Returns the measured Percent Effect for the input compound. Input: CCS(=O)(=O)c1ccccc1N1CCC(NC(=O)c2ccc[nH]2)CC1 -4.07%

I would be grateful if you could share the reported Percent Effect for Cc1oc(-c2nc(C#N)c(N(C)C)o2)cc1S(=O)(=O)N1CCCC1 . -3.98%

Query: Percent Effect; subject: c1nc2n(n1)CC(NCc1nc(-c3ccsc3)no1)CC2 (stereo not given) -3.43%

Would you mind telling me what Percent Effect value was observed for CN(C)C(=O)c1ccc2c(c1)N(C)C(CC(=O)NCc1ccno1)CO2 (stereo not given) ? -0.872%

Return reported Percent Effect; argument: Cc1cnn(CC2CCCCN2C(=O)Cc2csc(C)n2)c1 (stereo not given) -3.54%

What value of Percent Effect has been recorded for this entry: Cn1cccc1C(=O)N1CCn2cc(CNC(=O)CC3CC3)nc2C1 -2.92%

Which Percent Effect is listed for COc1ccc(CNC(=O)NC2CCN(CC(F)F)CC2)cc1C ? -6.96%

Need Percent Effect of Cc1csc(NC(=O)CN(C)CC2CCCN2c2cccnn2)n1 (stereo not given) , thanks. -4.27%

Look up Percent Effect for this compound: O=C1COC2(CCN(CC3CC3)CC2)CN1c1ccccc1 -0.394%

Which measured Percent Effect value corresponds to O=C([C@@H]1CC[C@@H]2[C@@H](CCN2Cc2ccoc2)O1)N1CCCC1 ? -5.35%

Name the recorded Percent Effect for Cc1cc2nc(SCC(=O)N3CCCC3)n(-c3ccccc3)c(=O)c2[nH]1 . -2.59%

Query (compound): COc1cccc2c1OCC(NC(=O)NCc1cccs1)C2 (stereo not given) ; field requested: Percent Effect -7.48%

I have this compound here, COCC(=O)N1CCCC2(CCN(c3ccsc3)C2=O)C1 (stereo not given) , and I need its recorded Percent Effect. -5.59%

Which Percent Effect reading was recorded for the compound O=C(CC1CCCC1)NCCn1ccc(-c2ccncc2)n1 ? -3.35%

// query Percent Effect value for entry Cc1cc(-c2cnc(N3CCN(C)CC3)nc2-c2ccc(C)s2)on1 -2.21%

Look up Percent Effect for this compound: O=C(c1cccc(F)c1)N1CCN2C[C@H](OCc3cccnc3)C[C@H]2C1 -4.82%

# query: Percent Effect of entry O=S(=O)(C1CC1)N1CCO[C@H]2[C@H](OCCN3CCCC3)CC[C@@H]21 0.18%

Which Percent Effect value belongs to Cc1cccnc1NCCNC(=O)[C@H]1CNC[C@@H](C(=O)N2CCCC2)C1 ? -3.94%

Recorded Percent Effect for CCc1ccccc1-n1cc(O)c(C(=O)N2CCCCC2)n1 , please? -2.01%

Report Percent Effect for COc1ccc(CN2CC[C@H](NC(C)=O)[C@@H](O)CC2)c(OC)c1 please. -4.21%

Dear colleague, I am looking for the recorded Percent Effect of the following compound: CC(C)COC(C)C(=O)N1CCN(S(C)(=O)=O)CC1 (stereo not given) -3.12%

# query: Percent Effect of entry CN(c1ccc(F)c(F)c1)S(=O)(=O)c1cc(C(=O)O)cs1 -0.362%

Endpoint output: Percent Effect of COc1cccc(S(=O)(=O)NC(=O)COc2c(C)cccc2C)c1 . Value? -5.17%

Please give the measured Percent Effect for this compound: CCOc1cccc(C(=O)N2CCN(c3nccc(OC)n3)CC2)c1 -7.2%

Requested read-out: Percent Effect. Entry: CCN(C)c1ncnc2c1CCN(C(=O)c1ccno1)CC2 -6.78%

Please look up its Percent Effect: CCn1cc(NC(=O)NCC(C)O)cn1 (stereo not given) -0.762%

Any idea what its Percent Effect is? The compound is CCN1CCCN(C(=O)c2cnc(OC(C)C)c(Cl)c2)CC1 -2.83%

Name the reported Percent Effect value associated with the compound COCC(=O)N1CC[C@@H]2O[C@H](COCc3ccncc3)CC[C@@H]21 -3.69%

Which value of Percent Effect has been reported for CCN(CCNC(=O)c1ccccc1Br)C1CC1 in the records? -1.99%

Which Percent Effect is reported for this compound? O=C(NCc1csc(Br)c1)c1ccc(=O)[nH]n1 -0.0216%

Returns the measured Percent Effect for the input compound. Input: COC(=O)c1cccc(NC(=O)CCn2nc(-c3cccs3)oc2=O)c1 -5.54%

Bench note: what Percent Effect did CNC(=O)C(C)(C)NC(=O)c1cc(OCC2CCC2)cc(C(=O)OC)c1 show? -0.888%

Query: Percent Effect; subject: Cc1noc([C@H]2C[C@@H]3CCN(C(=O)C4CCOCC4)C[C@H]3O2)n1 -3.88%

// query Percent Effect value for entry O=c1oc(-c2ccc(F)cc2)nn1CN1CCN(C2CCCC2)CC1 -3.25%

Requested read-out: Percent Effect. Entry: CC(=O)c1cn(CCC(=O)NCCC(=O)O)c2ccccc12 0.0873%

Which Percent Effect value belongs to Cn1cnnc1C1CCCN(C(=O)c2cnc3ccccc3n2)C1 (stereo not given) ? -5.29%

Sample CCNC(c1cccnc1)c1ccc(F)c(F)c1 (stereo not given) — what was its Percent Effect? -1.6%

Give the measured Percent Effect of CS(=O)(=O)N1CCC(C(=O)NC(Cc2ccsc2)c2ccccn2)CC1 (stereo not given) . -4.27%

Value lookup for Percent Effect; key = Cc1ccc(C(=O)N2CCC3(CCC(=O)N(CC(N)=O)C3)CC2)c(O)c1 1.03%
